experimental details: Stability of the compound in human serum assessed as intact compound remaining at 2 mg/ml measured after 60 mins by […] analysis
Assay type: ADME, cell-free
test parameters: read-out: Stability
What remaining at 1 h, 2 mg/ml was measured for each of the following?
One number for each entry, in %.

CC(C)C[C@H](NC(=O)[C@H](CCCNC(=N)N)NC(=O)CNC(=O)[C@H](CC(C)C)NC(=O)[C@@H](NC(=O)[C@H](CCCCN)NC(=O)[C@@H](NC(=O)[C@H](CC(C)C)NC(=O)[C@H](CCCNC(=N)N)NC(=O)CNC(=O)[C@H](CC(C)C)NC(=O)[C@@H](NC(=O)[C@@H](N)CCCCN)C(C)C)C(C)C)C(C)C)C(=O)N[C@H](C(N)=O)C(C)C = 51

For reference, reported remaining at 1 h, 2 mg/ml for `CC(C)C[C@H](NC(=O)[C@H](CCCNC(=N)N)NC(=O)CNC(=O)[C@H](CC(C)C)NC(=O)[C@@H](NC(=O)[C@@H](CCCCN)NC(=O)[C@@H](NC(=O)[C@H](CC(C)C)NC(=O)[C@H](CCCNC(=N)N)NC(=O)CNC(=O)[C@H](CC(C)C)NC(=O)[C@@H](NC(=O)[C@@H](N)CCCCN)C(C)C)C(C)C)C(C)C)C(=O)N[C@H](C(N)=O)C(C)C` stands at 88

---

experimental details: Hemolytic activity in human RBC measured after 40 mins
Assay type: ADME, tissue-based, Erythrocyte
test parameters: red blood cells (RBC)
Exercise: state measured HC50 at 40 min for each of the compounds provided.
Give bare numbers, in µM.

CC(C)C[C@H](NC(=O)[C@H](CCCNC(=N)N)NC(=O)CNC(=O)[C@H](CC(C)C)NC(=O)[C@@H](NC(=O)[C@H](CCCCN)NC(=O)[C@@H](NC(=O)[C@H](CC(C)C)NC(=O)[C@H](CCCNC(=N)N)NC(=O)CNC(=O)[C@H](CC(C)C)NC(=O)[C@@H](NC(=O)[C@H](N)CCCCN)C(C)C)C(C)C)C(C)C)C(=O)N[C@H](C(N)=O)C(C)C = 165

Now for a further compound.
// `CC(C)C[C@H](NC(=O)[C@H](CCCNC(=N)N)NC(=O)CNC(=O)[C@H](CC(C)C)NC(=O)[C@@H](NC(=O)[C@H](CCCCN)NC(=O)[C@@H](NC(=O)[C@H](CC(C)C)NC(=O)[C@H](CCCNC(=N)N)NC(=O)CNC(=O)[C@H](CC(C)C)NC(=O)[C@@H](NC(=O)[C@@H](N)CCCCN)C(C)C)C(C)C)C(C)C)C(=O)N[C@H](C(N)=O)C(C)C` : HC50 at 40 min value = 429

---

Tested on: Escherichia coli
experimental details: Antibacterial activity against Escherichia coli ATCC 25922 in presence of temperature ranging from 4 to 90 degC measured after 1 hr
Type: functional
For each of the molecules below, state its MIC.
Reply with a number, then the unit it belongs to.

Here are 2 molecules together with their reported answers.
CC(C)C[C@H](NC(=O)[C@H](CCCNC(=N)N)NC(=O)CNC(=O)[C@H](CC(C)C)NC(=O)[C@@H](NC(=O)[C@H](CCCCN)NC(=O)[C@@H](NC(=O)[C@H](CC(C)C)NC(=O)[C@H](CCCNC(=N)N)NC(=O)CNC(=O)[C@H](CC(C)C)NC(=O)[C@@H](NC(=O)[C@@H](N)CCCCN)C(C)C)C(C)C)C(C)C)C(=O)N[C@H](C(N)=O)C(C)C = 2 µM
CC(C)C[C@H](NC(=O)[C@H](CCCNC(=N)N)NC(=O)CNC(=O)[C@H](CC(C)C)NC(=O)[C@@H](NC(=O)[C@H](CCCCN)NC(=O)[C@@H](NC(=O)[C@H](CC(C)C)NC(=O)[C@H](CCCNC(=N)N)NC(=O)CNC(=O)[C@H](CC(C)C)NC(=O)[C@@H](NC(=O)[C@H](N)CCCCN)C(C)C)C(C)C)C(C)C)C(=O)N[C@H](C(N)=O)C(C)C = 2 µM

The molecule listed as `CC(C)C[C@H](NC(=O)[C@H](CCCNC(=N)N)NC(=O)CNC(=O)[C@H](CC(C)C)NC(=O)[C@@H](NC(=O)[C@@H](CCCCN)NC(=O)[C@@H](NC(=O)[C@H](CC(C)C)NC(=O)[C@H](CCCNC(=N)N)NC(=O)CNC(=O)[C@H](CC(C)C)NC(=O)[C@@H](NC(=O)[C@H](N)CCCCN)C(C)C)C(C)C)C(C)C)C(=O)N[C@H](C(N)=O)C(C)C` has a reported MIC of 2 µM
